# System: OVCAR-5 ovarian
# experimentDescription: NCI tumour cell line growth inhibition, 48 h

molecule: CN(NC(=O)/C(=C/c1ccc(Cl)cc1)NC(=O)c1ccccc1)c1cn[nH]c(=O)c1Cl
TGI: > 100 µM
--
molecule: CC1(F)C=CC(=O)C=C1
TGI: > 100 µM
--
molecule: CCNCCCn1c2c(c3ccc(F)cc3c1=O)C(=O)c1cc(OC)cnc1-2
TGI: 1.9 µM
--
molecule: O=C1C=CC(=O)c2c1ccc1c3ccccc3n(CCCCCCCCn3c4ccccc4c4ccc5c(c43)C(=O)C=CC5=O)c21
TGI: > 100 µM
--
molecule: C[C@]12CC[C@H](O)CC1=CC[C@@H]1C2CC[C@]2(C)c3n[nH]nc3CC12 (stereo not given in full)
TGI: > 100 µM

---

# Tested on: SK-MEL-5 melanoma
# experimentDescription: NCI tumour cell line growth inhibition, 48 h
Catalogue of compounds with associated TGI

compound: O=C1C=CC(=O)c2c1ccc1c3ccccc3n(CCCCCCCCn3c4ccccc4c4ccc5c(c43)C(=O)C=CC5=O)c21
targetOrTestSystem: SK-MEL-5 melanoma
unitAbbreviation: µM
resultModifier: >
TGI: 100
//
compound: Cc1nc2c(n1CC(C)C)C(=O)c1ccccc1C2=O
targetOrTestSystem: SK-MEL-5 melanoma
unitAbbreviation: µM
resultModifier: =
TGI: 34.7
//
compound: COc1ccc(C(c2ccc(C(C)C)cc(OC)c2=O)c2ccc(C(C)C)cc(OC)c2=O)cc1
targetOrTestSystem: SK-MEL-5 melanoma
unitAbbreviation: µM
resultModifier: =
TGI: 27.4
//
compound: COC(=O)C1(NC(=O)C(CC(=O)OCc2ccccc2)NC(=O)OCc2ccccc2)CCCCCCC1 (stereo not given)
targetOrTestSystem: SK-MEL-5 melanoma
unitAbbreviation: µM
resultModifier: =
TGI: 29.4
//
compound: NC(=S)N/N=C/c1c[nH]c2ccccc12
targetOrTestSystem: SK-MEL-5 melanoma
unitAbbreviation: µM
resultModifier: >
TGI: 100

---

Catalogue of compounds with associated GI50
# Tested on: SK-MEL-5 melanoma
# experimentDescription: NCI tumour cell line growth inhibition, 48 h

compound: O=C(NC(=S)Nc1ccccn1)c1ccccc1
targetOrTestSystem: SK-MEL-5 melanoma
GI50: > 100 µM

compound: C=C1CC2(OC1=O)C(=O)N(C)c1ccc(I)cc12 (stereo not given)
targetOrTestSystem: SK-MEL-5 melanoma
GI50: 2.26 µM

compound: O=C(Nc1ccc(-n2cc(-c3ccncc3)c(-c3ccc(O)c(Cl)c3)n2)cc1)c1cc(C(F)(F)F)cc(C(F)(F)F)c1
targetOrTestSystem: SK-MEL-5 melanoma
GI50: 5.68 µM

compound: O=C1C(Cl)=C(Nc2cccc(O)c2)C(=O)N1CCc1ccccc1
targetOrTestSystem: SK-MEL-5 melanoma
GI50: 20.2 µM

compound: Cc1ccc(/C(=N/NS(=O)(=O)c2ccc([N+](=O)[O-])cc2)Sc2cc(Cl)c(C)cc2S(N)(=O)=O)cc1
targetOrTestSystem: SK-MEL-5 melanoma
GI50: > 100 µM

---

# System: NCI-H226 lung
# experimentDescription: NCI tumour cell line growth inhibition, 48 h
reportedMetric: GI50

compound: COc1cccc2c1C(=O)c1c(O)c3c(c(O)c1C2=O)CC(O)(/C(C)=N/NC(=O)CCCCC(=O)N/N=C(\C)C1(O)Cc2c(O)c4c(c(O)c2C(OC2CC(N)C(O)C(C)O2)C1)C(=O)c1c(OC)cccc1C4=O)CC3OC1CC(N)C(O)C(C)O1 (configuration not stated)
obsValue: 159 nM

compound: C[C@H]1[C@H](C)CC[C@]2(C(=O)OCCCC[P+](c3ccccc3)(c3ccccc3)c3ccccc3)CC[C@]3(C)C(=CC[C@@H]4[C@@]5(C)CC[C@H](OC(=O)C(Cl)Cl)C(C)(C)[C@@H]5CC[C@]43C)[C@H]12
obsValue: 354 nM
